assay: Cytotoxicity against MT4 cells after 4 days by MTT method; format: cell-based; details: human
# if measured CC50 at 96 h < 60 µM: condition met  # else: condition not met

Completed entries (count: 5):
MOLECULE	LABEL_VALUE
CCc1c(C(C#N)c2ccccc2)nc(SC(C)C)[nH]c1=O (stereo unspecified)	condition met
CCc1c(C(C#N)c2ccccc2)nc(SCc2ccc([N+](=O)[O-])cc2)[nH]c1=O (stereo unspecified)	condition met
CCSc1nc(C(=O)c2ccccc2)cc(=O)[nH]1	condition not met
CCSc1nc(C(=O)c2cccc3ccccc23)cc(=O)[nH]1	condition not met
C#CCSc1nc(C(C#N)c2cccc3ccccc23)c(CC)c(=O)[nH]1 (stereo unspecified)	condition met

Please look at the following molecule next.
Is CC50 at 96 h of CC(C)c1c(C(=O)c2cccc3ccccc23)nc(SC2CCCC2)[nH]c1=O strictly below 60 µM?
condition met

----------
Items are presented alongside their recorded log10 CC50 at 96 h.
test: Cytotoxicity against MT4 cells after 4 days by MTT method; type: cell-based; conditions: human
Base-10 log of CC50 at 96 h, unit µM.

Before answering, review these 8 worked examples.
MOLECULE	MEAS_VALUE
C=CCSc1nc(C(=O)c2cccc3ccccc23)c(CC)c(=O)[nH]1	2.32
CCc1c(C(=O)c2ccccc2)nc(SC2CCCC2)[nH]c1=O	1.78
O=C(c1cc(=O)[nH]c(SC2CCCC2)n1)c1cccc2ccccc12	1.32
Cc1c(C(C#N)c2ccccc2)nc(SC(C)C)[nH]c1=O (stereo unspecified)	1.03
COc1ccc(CSc2nc(C(C#N)c3ccccc3)c(C(C)C)c(=O)[nH]2)cc1 (stereo unspecified)	1.43
CC(C)c1c(C(C#N)c2cccc3ccccc23)nc(SC2CCCC2)[nH]c1=O (stereo unspecified)	0.86
CCc1c(C(C#N)c2c(Cl)cccc2Cl)nc(SCc2ccc([N+](=O)[O-])cc2)[nH]c1=O (stereo unspecified)	1.37
N#CC(c1cc(=O)[nH]c(SC2CCCC2)n1)c1cccc2ccccc12 (stereo unspecified)	1.36

The value of log10 CC50 at 96 h measured for the molecule Cc1c(C(C#N)c2ccccc2)nc(SC2CCCC2)[nH]c1=O (stereo unspecified) turned out to be 1.77

The value of log10 CC50 at 96 h measured for the molecule CCSc1nc(C(=O)c2cccc3ccccc23)c(CC)c(=O)[nH]1 turned out to be 2.29

The value of log10 CC50 at 96 h measured for the molecule C#CCSc1nc(C(=O)c2cccc3ccccc23)c(C)c(=O)[nH]1 turned out to be 2.09

----------
experiment: Cytotoxicity against mock-infecected human PBMC; assay type: cell-based; details: mock-infected PBMC
MEASUREMENT_NAME: CC50 (µM)
Quick note: give the figure in µM, leave out the unit.

The value of CC50 measured for the molecule Cc1c(C(C#N)c2cccc3ccccc23)nc(SCC(=O)c2ccccc2)[nH]c1=O (configuration not stated) turned out to be 69.9

----------
test: Cytotoxicity against MT4 cells after 4 days by MTT method; assay type: cell-based; conditions: human
MEASUREMENT_NAME: CC50 at 96 h

Before answering, review these 3 worked examples.
COMPOUND	CC50 at 96 h
Cc1ccnc2c1NC(=O)c1cccnc1N2C1CC1 [NEVIRAPINE]	> 200 µM
CCc1c(C(C#N)c2cccc3ccccc23)nc(SC(C)C)[nH]c1=O (stereo not given)	> 344 µM
O=C(CSc1nc(C(=O)c2cccc3ccccc23)cc(=O)[nH]1)c1ccccc1	> 304 µM

The value of CC50 at 96 h measured for the compound Cc1c(C(C#N)c2cccc3ccccc23)nc(SC2CCCC2)[nH]c1=O (stereo not given) turned out to be 49.4 µM

The value of CC50 at 96 h measured for the compound CCc1c(C(=O)c2cccc3ccccc23)nc(SC(C)C)[nH]c1=O turned out to be 179 µM
